All values here come from ChEMBL document CHEMBL5518206.

# Test Method Notes: Plasma Concentration in pig at 3 mg/kg, iv measured upto 240 mins by LC-MS/MS analysis
# Format: ADME, organism-based, Sus scrofa

[
  {
    "Substance Smiles": "C=C[C@]1(C)C[C@@H](OC(=O)Cn2cc(-c3ccc(Cn4cnc5c(N6CCNCC6)ncnc54)nc3)nn2)[C@]2(C)[C@H](C)CC[C@]3(CCC(=O)[C@H]32)[C@@H](C)[C@@H]1O",
    "concentration at 4 h, ng/mL": 866
  }
]

====

# Test Method Notes: Tmax in NMRI female mouse at 30 mg/kg, po by HPLC analysis
# Assay type: ADME, organism-based
# Study Conditions: in vivo

[
  {
    "Substance Smiles": "C=C[C@]1(C)C[C@@H](OC(=O)Cn2cc(-c3ccc(Cn4cnc5c(N6CCNCC6)ncnc54)nc3)nn2)[C@]2(C)[C@H](C)CC[C@]3(CCC(=O)[C@H]32)[C@@H](C)[C@@H]1O",
    "Tmax": "15 min"
  }
]

====

# Test Method Notes: Cmax in NMRI female mouse at 20 mg/kg, sc by HPLC analysis
# Format: ADME, organism-based
# Study Conditions: in vivo

[
  {
    "Substance Smiles": "C=C[C@]1(C)C[C@@H](OC(=O)Cn2cc(-c3ccc(Cn4cnc5c(N6CCNCC6)ncnc54)nc3)nn2)[C@]2(C)[C@H](C)CC[C@]3(CCC(=O)[C@H]32)[C@@H](C)[C@@H]1O",
    "Result Units": "µg/mL",
    "Cmax": 1.18
  }
]

====

# System: Enterococcus faecium
# Test Method Notes: Antibacterial activity against Vancomycin-resistant Enterococcus faecium assessed as inhibition of visible growth incubated for 20 to 24 hrs by microbroth serial dilution assay
# Type: functional
# Study Conditions: time 20-24 hrs, read-out: MIC100
# MIC per record follows

[
  {
    "Substance Smiles": "C=C[C@]1(C)C[C@@H](OC(=O)Cn2cc(-c3ccc([C@H](C)n4cnc5c(N6CCNCC6)ncnc54)cc3)nn2)[C@]2(C)[C@H](C)CC[C@]3(CCC(=O)[C@H]32)[C@@H](C)[C@@H]1O",
    "MIC": "0.5 µg/mL"
  },
  {
    "Substance Smiles": "C=C[C@]1(C)C[C@@H](OC(=O)Cn2cc(-c3ccc(Cn4cnc5c(N6CCNCC6)ncnc54)cc3)nn2)[C@]2(C)[C@H](C)CC[C@]3(CCC(=O)[C@H]32)[C@@H](C)[C@@H]1O",
    "MIC": "0.06 µg/mL"
  },
  {
    "Substance Smiles": "C=C[C@]1(C)C[C@@H](OC(=O)Cn2cc(-c3ccc([C@@H](C)n4cnc5c(N6CCNCC6)ncnc54)cc3)nn2)[C@]2(C)[C@H](C)CC[C@]3(CCC(=O)[C@H]32)[C@@H](C)[C@@H]1O",
    "MIC": "0.25 µg/mL"
  },
  {
    "Substance Smiles": "C=C[C@]1(C)C[C@@H](OC(=O)Cn2cc(-c3ccc([C@H](C)n4cnc5c(N)ncnc54)cc3)nn2)[C@]2(C)[C@H](C)CC[C@]3(CCC(=O)[C@H]32)[C@@H](C)[C@@H]1O",
    "MIC": "0.5 µg/mL"
  },
  {
    "Substance Smiles": "C=C[C@]1(C)C[C@@H](OC(=O)Cn2cc(-c3ccc(Cn4cnc5c(N)ncnc54)nc3)nn2)[C@]2(C)[C@H](C)CC[C@]3(CCC(=O)[C@H]32)[C@@H](C)[C@@H]1O",
    "MIC": "0.12 µg/mL"
  }
]
